target: human VR1 (Homo sapiens, UniProt Q8NER1); test: Human VR1 antagonist assay (Ca2+ imaging); assay type: cell-based; details: Ca2+ imaging assay using human VR1 highly expressing cells, fura-2/AM; agonist stimulation (capsaicin 300 nM or acid pH 5.8), not given
Sequence (Q8NER1 whole entry): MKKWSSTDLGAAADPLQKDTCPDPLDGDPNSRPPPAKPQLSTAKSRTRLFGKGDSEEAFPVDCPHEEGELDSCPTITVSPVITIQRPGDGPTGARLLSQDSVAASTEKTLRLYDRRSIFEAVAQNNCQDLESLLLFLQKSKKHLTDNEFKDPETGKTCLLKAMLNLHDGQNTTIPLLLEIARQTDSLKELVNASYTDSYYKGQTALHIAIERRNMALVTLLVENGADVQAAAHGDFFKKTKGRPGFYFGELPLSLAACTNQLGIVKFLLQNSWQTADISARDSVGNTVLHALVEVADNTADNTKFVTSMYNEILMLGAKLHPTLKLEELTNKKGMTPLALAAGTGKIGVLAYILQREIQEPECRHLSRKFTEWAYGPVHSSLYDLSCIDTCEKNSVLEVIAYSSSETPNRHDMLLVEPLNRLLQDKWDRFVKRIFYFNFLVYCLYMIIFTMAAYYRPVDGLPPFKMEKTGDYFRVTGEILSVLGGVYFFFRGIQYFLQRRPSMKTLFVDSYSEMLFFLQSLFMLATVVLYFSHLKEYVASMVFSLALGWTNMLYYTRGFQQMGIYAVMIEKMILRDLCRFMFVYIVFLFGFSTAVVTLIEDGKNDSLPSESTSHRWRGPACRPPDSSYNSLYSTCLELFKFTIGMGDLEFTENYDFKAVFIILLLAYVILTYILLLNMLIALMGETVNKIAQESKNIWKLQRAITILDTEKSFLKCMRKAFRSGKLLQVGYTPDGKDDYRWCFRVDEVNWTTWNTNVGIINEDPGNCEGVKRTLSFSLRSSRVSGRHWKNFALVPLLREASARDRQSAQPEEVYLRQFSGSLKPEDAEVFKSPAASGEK
pIC50: −log10 of the molar value. Where a name gives a salt, the structure may show the parent alone.
In this section we review reported pIC50 values for a set of compounds.
measured.attribute: pIC50

                                   compound  measured_number
0  O=C(NCc1ccnc2ccccc12)c1ccc2cc(C3CC3)ccc2c1             6.39
1  C[C@@H](NC(=O)c1ccc2cc(C(C)(C)C)ccc2n1)c1ccnc2ccccc12 (single isomer, unassigned)             6.88
2  CC(C)(c1ccc2cc(C(=O)NCc3ccnc4ccc(F)cc34)ccc2n1)C(F)(F)F             6.76
3  CC(NC(=O)c1ccc2cc(C(C)(C)C)ccc2n1)c1ccnc2ccccc12 (stereo not shown) [Example B5, hydrochloride]             6.69

====

target: human VR1 (Homo sapiens, UniProt Q8NER1); experiment: Human VR1 antagonist assay (Ca2+ imaging); format: cell-based; conditions: Ca2+ imaging assay using human VR1 highly expressing cells, fura-2/AM; agonist stimulation (capsaicin 300 nM or acid pH 5.8), not given
In this section we review reported log10(IC50) values for a set of compounds.
measured.attribute: log10(IC50) (log10 of the value in nM)

                                   compound  measured_number
0  CC1(c2ccc3cc(C(=O)NCc4ccnc5ccccc45)ccc3c2)CC1             2.15
1  CC(C)(c1ccc2cc(C(=O)NCc3ccnc4c(F)cc(F)cc34)ccc2n1)C(F)(F)F             2.42
2  CC(C)(c1ccc2cc(C(=O)NCc3cccc4cnccc34)ccc2n1)C(F)(F)F             1.43
3  CCC(NC(=O)c1ccc2nc(C(C)(C)C(F)(F)F)ccc2c1)c1ccnc2ccccc12 (centres unmarked)             2.13
4  C[C@@H](NC(=O)c1ccc2cc(C(C)(C)C)ccc2c1)c1ccc2nn[nH]c2c1             1.25
5  C[C@@H](NC(=O)c1ccc2nc(C(C)(C)C)ccc2c1)c1ccc2[nH]nnc2c1             1.59
6  C[C@@H](NC(=O)c1ccc2cc(C(C)(O)C(F)(F)F)ccc2c1)c1ccnc2ccccc12 (some centres unmarked)             2.58
7  CC(C)(c1ccc2cc(C(=O)NC(CO)c3ccnc4ccccc34)ccc2n1)C(F)(F)F (centres unmarked)             2.76

====

In this section we review reported pIC50 values for a set of molecules.
molecular target: human VR1 (Homo sapiens, UniProt Q8NER1); assay: Human VR1 antagonist assay (Ca2+ imaging); conditions: Ca2+ imaging assay using human VR1 highly expressing cells, fura-2/AM; agonist stimulation (capsaicin 300 nM or acid pH 5.8), not given
pIC50: −log10 of the molar value.
measured.attribute: pIC50

In [3]: df
Out[3]:
                                   molecule  measured_attribute  measured_number
0  CC(O)(c1ccc2cc(C(=O)NCc3cccc4cnccc34)ccc2n1)C(F)(F)F (stereo not shown) [Example C17]               pIC50             6.75
1  CC[C@@H](NC(=O)c1ccc2cc(C(C)(C)C)ccc2n1)c1ccc2[nH]nnc2c1 [Example B2]               pIC50             6.80
2  CC(NC(=O)c1ccc2nc(C(C)(C)C)ccc2c1)c1ccc2c(c1)CC(=O)N2 (stereo not shown) [Example C3]               pIC50             6.62
3  CC(C)(C)c1ccc2cc(C(=O)NCc3ccnc4ccccc34)ccc2c1 [Example A2]               pIC50             7.77

====

biological target: human VR1 (Homo sapiens, UniProt Q8NER1); experiment: Human VR1 antagonist assay (Ca2+ imaging); details: Ca2+ imaging assay using human VR1 highly expressing cells, fura-2/AM; agonist stimulation (capsaicin 300 nM or acid pH 5.8), not given
measured.attribute: IC50 (nM)

                                   compound                                       tgt  measured_attribute  measured_number
0  CC(NC(=O)c1ccc2nc(C(C)(C)C(F)(F)F)ccc2c1)c1ccc2[nH]ncc2c1 (centres unmarked) [Example C4]  human VR1 (Homo sapiens, UniProt Q8NER1)                IC50               23
1  CC(NC(=O)c1ccc2nc(C(C)(C)C(F)(F)F)ccc2c1)c1ccc2[nH]c(=O)[nH]c2c1 (centres unmarked) [Example C9]  human VR1 (Homo sapiens, UniProt Q8NER1)                IC50              151
2  Cc1cccc2c(CNC(=O)c3ccc4nc(C(C)(C)C(F)(F)F)ccc4c3)ccnc12 [Example C16]  human VR1 (Homo sapiens, UniProt Q8NER1)                IC50              437
3  CC(C)(C)c1ccc2nc(C(=O)NCc3ccc4[nH]nnc4c3)ccc2c1 [Example B6]  human VR1 (Homo sapiens, UniProt Q8NER1)                IC50             18.7
4  Cc1cc(CNC(=O)c2ccc3nc(C(C)(C)C(F)(F)F)ccc3c2)c2ccccc2n1 [Example C8]  human VR1 (Homo sapiens, UniProt Q8NER1)                IC50              351
5  CC(C)(c1ccc2cc(C(=O)NCc3ccnc4ccccc34)ccc2n1)C(F)(F)F [Example C5]  human VR1 (Homo sapiens, UniProt Q8NER1)                IC50               72
6  C[C@@H](NC(=O)c1ccc2nc(C(C)(C)C(F)(F)F)ccc2c1)c1ccnc2ccccc12 (single isomer, unassigned) [Example C13]  human VR1 (Homo sapiens, UniProt Q8NER1)                IC50             49.8
7  CC(NC(=O)c1cnc2cc(C(C)(C)C)ccc2c1)c1ccnc2ccccc12 (centres unmarked) [Example D1]  human VR1 (Homo sapiens, UniProt Q8NER1)                IC50              246

====

target: human VR1 (Homo sapiens); test: Human VR1 antagonist assay (Ca2+ imaging); conditions: Ca2+ imaging assay using human VR1 highly expressing cells, fura-2/AM; agonist stimulation (capsaicin 300 nM or acid pH 5.8), not given
In this section we review reported IC50 values for a set of compounds.
measured.attribute: IC50 (nM)

In [3]: df
Out[3]:
                                   compound  measured_number
0  CC(NC(=O)c1ccc2cc(C(C)(C)C)ccc2c1)c1ccc2c(c1)CC(=O)N2 (stereo not shown)             85.7
1  CC(C)(C)c1ccc2nc(C(=O)NCc3ccnc4ccccc34)ccc2c1              117
2  CC(NC(=O)c1ccc2cc(C(C)(C)C)ccc2c1)c1ccc2[nH]ncc2c1 (stereo not shown)             16.4
3  C[C@@H](NC(=O)c1ccc2nc(C(C)(O)C(F)(F)F)ccc2c1)c1ccnc2ccccc12 (stereo partly shown)              316

====

Target: human VR1 (Homo sapiens, UniProt Q8NER1)
Assay: Human VR1 antagonist assay (Ca2+ imaging)
Conditions: Ca2+ imaging assay using human VR1 highly expressing cells, fura-2/AM; agonist stimulation (capsaicin 300 nM or acid pH 5.8), not given
Source text: Human VR1 Antagonist Assay VR1 antagonistic activity can be determined by the Ca^2+ imaging assay using human VR1 highly expressing cells. The cells that highly express human VR1 receptors are obtainable from several different conventional methods. […] The capsaicin-induced changes in the intracellular calcium concentration were monitored using FDSS 6000 (Hamamatsu Photonics, Japan), a fluorometric imaging system. […]
pIC50: −log10 of the molar value.
Values of pIC50 greater than or equal to 7 map to yes; values below map to no.

>>> df
                                   compound  class
0  COC(C)(c1ccc2cc(C(=O)NCc3ccnc4ccccc34)ccc2c1)C(F)(F)F (stereo not shown)    yes
1  Cc1ccc2nccc(CNC(=O)c3ccc4nc(C(C)(C)C(F)(F)F)ccc4c3)c2c1     no
2  C[C@@H](NC(=O)c1ccc2cc(C(C)(C)C)ccc2n1)c1ccc2[nH]nnc2c1    yes
3  CC(NC(=O)c1ccc2nc(C(C)(C)C(F)(F)F)ccc2c1)c1ccc2c(c1)CC(=O)N2 (stereo not shown)     no

====

In this section we review reported pIC50 values for a set of compounds.
target: human VR1 (Homo sapiens, UniProt Q8NER1); assay: Human VR1 antagonist assay (Ca2+ imaging); details: Ca2+ imaging assay using human VR1 highly expressing cells, fura-2/AM; agonist stimulation (capsaicin 300 nM or acid pH 5.8), not given
pIC50: −log10 of the molar value.
measured.attribute: pIC50

In [3]: df
Out[3]:
                                   compound                                       tgt  measured_attribute  measured_number
0  C[C@@H](NC(=O)c1ccc2nc(C(C)(C)C)ccc2c1)c1ccc2[nH]c(=O)[nH]c2c1 [Example C2]  human VR1 (Homo sapiens, UniProt Q8NER1)               pIC50             6.85
1  CC(C)(C)c1ccc2cc(C(=O)NCc3ccc4c(c3)CN=N4)ccc2c1 [Example A3]  human VR1 (Homo sapiens, UniProt Q8NER1)               pIC50             7.21
